# Target Entity: T1, proliferating cell nuclear antigen (PCNA), wild type (human, UniProt P12004 1-261)
# T1 construct: human PCNA purified from E. coli; Homo-trimeric ring (88.7 kDa as printed); Human is stated for the ITC; In the functional rows PCNA is the endogenous protein of the human HEK-293 S100 extract; also called human PCNA; source: E. coli, purified
# T1 sequence (P12004 whole entry): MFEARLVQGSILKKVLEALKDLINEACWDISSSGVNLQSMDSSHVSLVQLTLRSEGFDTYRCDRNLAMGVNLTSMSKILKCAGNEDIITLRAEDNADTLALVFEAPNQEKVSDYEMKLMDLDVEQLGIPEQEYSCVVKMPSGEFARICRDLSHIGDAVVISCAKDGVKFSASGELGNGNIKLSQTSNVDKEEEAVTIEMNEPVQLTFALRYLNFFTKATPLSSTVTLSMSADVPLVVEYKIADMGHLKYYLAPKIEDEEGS
# Assay Info: ITC; peptide (200 to 500 uM in the syringe) titrated into PCNA (20 to 50 uM monomer in the cell); 10 mM sodium phosphate pH 7.0, 10 mM NaCl, 23 °C; single binding site model; apparent Kd
# Run Conditions: both partners purified
pKd: −log10 of the molar value. No end group written: not given here.
Property: pKd

>>> print(df.to_string())
                                     binder  property  reading
0  IKAEKAEITRFFQKPKTPQA (also: expressed as a GST fusion) [CAF-1 PIP wild-type peptide (expressed as a GST fusion)]       pKd     4.62
